pIC50 overview
# Test system: Neutrophil
# TEST_PROTOCOL: Inhibition of PMA-stimulated superoxide production in human neutrophils
# Type: functional, cell-based
# log scale: pIC50 equals minus log10 of the concentration in mol/L

Here is how some molecules turned out for pIC50.
COC(=O)c1ccc2cccc(O)c2n1
3.56
COC(=O)c1ccc2c(n1)C(=O)C=CC2=O
5.76

Req: Sample O=C(O)c1ccc2c(n1)C(=O)C1=C(NC=CS1(=O)=O)C2=O — what was its pIC50?
Resp: 6.36

====

# TEST_PROTOCOL: Inhibition of superoxide production by xanthine/xanthine oxidase method
# Type: functional
OUTCOME_MEASURE: pIC50
# log scale: pIC50 equals minus log10 of the concentration in mol/L

Here is how some molecules turned out for pIC50.
O=C(O)c1ccc2c(n1)C(=O)C1=C(NC=CS1(=O)=O)C2=O
4.75
Oc1ncnc2[nH]ncc12
4.37
O=C(O)c1ccc2c(n1)C(=O)C1=C(C2=O)S(=O)(=O)CCN1
4.25

Moving on to the next molecule.
Req: Sample COC(=O)c1ccc2c(n1)C(=O)C1=C(C2=O)S(=O)(=O)CCN1 — what was its pIC50?
Resp: 4.74
